Entries and their measured inhibition at 3.7 μM follow.
- Target: CYP2C19 (Homo sapiens, UniProt P33261)
- Sequence (P33261 whole entry): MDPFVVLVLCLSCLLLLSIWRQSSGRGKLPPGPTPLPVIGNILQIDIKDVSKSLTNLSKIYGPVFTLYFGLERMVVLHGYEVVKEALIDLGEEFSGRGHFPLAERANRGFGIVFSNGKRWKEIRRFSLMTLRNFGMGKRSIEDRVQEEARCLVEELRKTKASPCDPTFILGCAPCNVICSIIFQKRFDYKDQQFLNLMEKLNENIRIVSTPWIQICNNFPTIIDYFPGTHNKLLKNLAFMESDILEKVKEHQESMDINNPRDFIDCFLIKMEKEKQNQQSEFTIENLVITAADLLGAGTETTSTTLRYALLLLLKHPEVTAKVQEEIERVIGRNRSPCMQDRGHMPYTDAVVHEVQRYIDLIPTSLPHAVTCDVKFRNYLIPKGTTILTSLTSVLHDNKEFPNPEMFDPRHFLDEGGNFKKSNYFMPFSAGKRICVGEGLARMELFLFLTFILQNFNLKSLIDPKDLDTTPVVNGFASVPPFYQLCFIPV
- Assay Summary: in vitro
- Test Parameters: % Inhibition (set 1)

- Compound Structure String: "CC(C)(CCCCCCCCCCC(C)(C)CC(=O)O)CC(=O)O"
  inhibition at 3.7 μM [%]: 0
- Compound Structure String: "CC(C)(CCCCCCCCCCCCC(C)(C)C(=O)O)C(=O)O"
  inhibition at 3.7 μM [%]: 0

---

- Target: CYP2B6 (Homo sapiens)
- Sequence (P20813 1-491): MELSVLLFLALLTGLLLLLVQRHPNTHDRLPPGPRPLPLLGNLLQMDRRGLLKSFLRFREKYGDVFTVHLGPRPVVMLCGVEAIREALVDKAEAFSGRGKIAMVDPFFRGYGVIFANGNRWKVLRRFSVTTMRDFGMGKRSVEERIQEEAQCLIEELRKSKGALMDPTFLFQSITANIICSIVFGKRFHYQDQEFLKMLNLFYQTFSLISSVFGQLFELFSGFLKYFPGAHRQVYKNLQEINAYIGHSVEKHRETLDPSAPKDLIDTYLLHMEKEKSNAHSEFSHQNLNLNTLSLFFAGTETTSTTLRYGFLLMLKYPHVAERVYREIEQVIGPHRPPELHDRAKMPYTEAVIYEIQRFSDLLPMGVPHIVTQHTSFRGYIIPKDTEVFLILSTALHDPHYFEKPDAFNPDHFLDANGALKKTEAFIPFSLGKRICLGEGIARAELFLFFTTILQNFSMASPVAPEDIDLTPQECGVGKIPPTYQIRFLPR
- Assay Summary: in vitro
- Test Parameters: % Inhibition (set 2)
Entries and their measured inhibition at 11.11 μM follow.

- Compound Structure String: "CC(C)(CCCCCCCCCCCCC(C)(C)C(=O)O)C(=O)O"
  inhibition at 11.11 μM, %: 8
- Compound Structure String: "CC(C)(CCCCCCCCCCC(C)(C)CC(=O)O)CC(=O)O"
  inhibition at 11.11 μM, %: 6

---

- Target: CYP2B6 (Homo sapiens, UniProt P20813)
- Assay Summary: in vitro
- Test Parameters: % Inhibition (set 1)
Outcome Measure: inhibition at 0.05 μM (%)

- Compound Structure String: "CC(C)(CCCCCCCCCCC(C)(C)CC(=O)O)CC(=O)O"
  Outcome Measure: "inhibition at 0.05 μM"
  Assay Result: 1
- Compound Structure String: "CC(C)(CCCCCCCCCCCCC(C)(C)C(=O)O)C(=O)O"
  Outcome Measure: "inhibition at 0.05 μM"
  Assay Result: 0

---

- Target: CYP2C19 (Homo sapiens)
- Assay Summary: in vitro
- Test Parameters: % Inhibition (set 2)

- Compound: "CC(C)(CCCCCCCCCCC(C)(C)CC(=O)O)CC(=O)O [M16ββ]"
  Readout Units: "%"
  inhibition at 0.05 μM: 0
- Compound: "CC(C)(CCCCCCCCCCCCC(C)(C)C(=O)O)C(=O)O [M16αα]"
  Readout Units: "%"
  inhibition at 0.05 μM: 1

---

Entries and their measured inhibition at 0.05 μM follow.
- Target: CYP1A2 (Homo sapiens, UniProt P05177)
- Sequence (P05177 1-516): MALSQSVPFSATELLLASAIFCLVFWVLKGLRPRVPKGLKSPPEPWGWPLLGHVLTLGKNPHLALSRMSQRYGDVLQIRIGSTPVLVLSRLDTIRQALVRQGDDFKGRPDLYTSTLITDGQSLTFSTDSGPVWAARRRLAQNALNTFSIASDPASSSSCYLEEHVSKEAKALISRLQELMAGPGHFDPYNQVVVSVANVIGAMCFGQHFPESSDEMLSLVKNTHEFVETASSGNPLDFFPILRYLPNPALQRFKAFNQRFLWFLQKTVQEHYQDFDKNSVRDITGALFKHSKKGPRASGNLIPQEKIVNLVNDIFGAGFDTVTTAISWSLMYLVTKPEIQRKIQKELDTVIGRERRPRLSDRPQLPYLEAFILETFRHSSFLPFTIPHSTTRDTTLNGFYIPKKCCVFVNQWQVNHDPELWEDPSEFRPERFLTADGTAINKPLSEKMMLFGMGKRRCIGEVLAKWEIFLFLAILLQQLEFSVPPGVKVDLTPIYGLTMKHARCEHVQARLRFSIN
- Assay Summary: in vitro
- Test Parameters: % Inhibition (set 2)

- Compound Structure String: "CC(C)(CCCCCCCCCCCCC(C)(C)C(=O)O)C(=O)O"
  Readout Units: "%"
  inhibition at 0.05 μM: 0
- Compound Structure String: "CC(C)(CCCCCCCCCCC(C)(C)CC(=O)O)CC(=O)O"
  Readout Units: "%"
  inhibition at 0.05 μM: 0

---

- Target: CYP2C19 (Homo sapiens, UniProt P33261)
- Assay Summary: in vitro
- Test Parameters: % Inhibition (set 2)

- Compound Structure String: "CC(C)(CCCCCCCCCCC(C)(C)CC(=O)O)CC(=O)O"
  inhibition at 3.7 μM, %: 0
- Compound Structure String: "CC(C)(CCCCCCCCCCCCC(C)(C)C(=O)O)C(=O)O"
  inhibition at 3.7 μM, %: 4

---

- Target: CYP2D6 (Homo sapiens, UniProt P10635)
- Sequence (P10635 whole entry): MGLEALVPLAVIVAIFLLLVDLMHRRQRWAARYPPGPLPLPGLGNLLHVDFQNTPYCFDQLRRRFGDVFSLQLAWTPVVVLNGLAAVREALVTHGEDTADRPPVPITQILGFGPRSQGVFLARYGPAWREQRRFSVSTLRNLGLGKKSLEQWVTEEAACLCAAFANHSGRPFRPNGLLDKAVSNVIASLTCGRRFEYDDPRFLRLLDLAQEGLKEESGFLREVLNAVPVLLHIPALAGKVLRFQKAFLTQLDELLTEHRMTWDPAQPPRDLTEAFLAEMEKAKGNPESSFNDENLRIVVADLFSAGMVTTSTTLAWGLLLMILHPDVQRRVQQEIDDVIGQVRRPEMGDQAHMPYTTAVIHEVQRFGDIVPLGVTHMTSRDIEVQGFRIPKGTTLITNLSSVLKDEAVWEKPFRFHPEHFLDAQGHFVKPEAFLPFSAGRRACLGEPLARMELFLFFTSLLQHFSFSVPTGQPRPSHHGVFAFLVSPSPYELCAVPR
- Assay Summary: in vitro
- Test Parameters: % Inhibition (set 2)
Outcome Measure: inhibition at 100 μM (%)

- Compound Structure String: "CC(C)(CCCCCCCCCCC(C)(C)CC(=O)O)CC(=O)O"
  Outcome Measure: "inhibition at 100 μM"
  Readout Units: "%"
  Assay Result: 19
- Compound Structure String: "CC(C)(CCCCCCCCCCCCC(C)(C)C(=O)O)C(=O)O"
  Outcome Measure: "inhibition at 100 μM"
  Readout Units: "%"
  Assay Result: 0

---

- Target: CYP2B6 (Homo sapiens)
- Assay Summary: in vitro
- Test Parameters: % Inhibition (set 2)

- Compound Structure String: "CC(C)(CCCCCCCCCCCCC(C)(C)C(=O)O)C(=O)O"
  inhibition at 0.05 μM / %: 2
- Compound Structure String: "CC(C)(CCCCCCCCCCC(C)(C)CC(=O)O)CC(=O)O"
  inhibition at 0.05 μM / %: 0

---

Entries and their measured inhibition at 3.7 μM follow.
- Target: CYP2B6 (Homo sapiens)
- Assay Summary: in vitro
- Test Parameters: % Inhibition (set 2)

- Compound Structure String: "CC(C)(CCCCCCCCCCCCC(C)(C)C(=O)O)C(=O)O"
  Readout Units: "%"
  inhibition at 3.7 μM: 2
- Compound Structure String: "CC(C)(CCCCCCCCCCC(C)(C)CC(=O)O)CC(=O)O"
  Readout Units: "%"
  inhibition at 3.7 μM: 0

---

- Target: CYP2D6 (Homo sapiens)
- Assay Summary: in vitro
- Test Parameters: % Inhibition (set 1)
Entries and their measured inhibition at 33.33 μM follow.

- Compound Structure String: "CC(C)(CCCCCCCCCCCCC(C)(C)C(=O)O)C(=O)O"
  inhibition at 33.33 μM (%): 11
- Compound Structure String: "CC(C)(CCCCCCCCCCC(C)(C)CC(=O)O)CC(=O)O"
  inhibition at 33.33 μM (%): 17

---

Entries and their measured inhibition at 33.33 μM follow.
- Target: CYP1A2 (Homo sapiens)
- Assay Summary: in vitro
- Test Parameters: % Inhibition (set 1)

- Compound Structure String: "CC(C)(CCCCCCCCCCCCC(C)(C)C(=O)O)C(=O)O"
  inhibition at 33.33 μM: "7%"
- Compound Structure String: "CC(C)(CCCCCCCCCCC(C)(C)CC(=O)O)CC(=O)O"
  inhibition at 33.33 μM: "3%"

---

Entries and their measured inhibition at 1.23 μM follow.
- Target: UniProt:P10632
- Sequence (P10632 1-490): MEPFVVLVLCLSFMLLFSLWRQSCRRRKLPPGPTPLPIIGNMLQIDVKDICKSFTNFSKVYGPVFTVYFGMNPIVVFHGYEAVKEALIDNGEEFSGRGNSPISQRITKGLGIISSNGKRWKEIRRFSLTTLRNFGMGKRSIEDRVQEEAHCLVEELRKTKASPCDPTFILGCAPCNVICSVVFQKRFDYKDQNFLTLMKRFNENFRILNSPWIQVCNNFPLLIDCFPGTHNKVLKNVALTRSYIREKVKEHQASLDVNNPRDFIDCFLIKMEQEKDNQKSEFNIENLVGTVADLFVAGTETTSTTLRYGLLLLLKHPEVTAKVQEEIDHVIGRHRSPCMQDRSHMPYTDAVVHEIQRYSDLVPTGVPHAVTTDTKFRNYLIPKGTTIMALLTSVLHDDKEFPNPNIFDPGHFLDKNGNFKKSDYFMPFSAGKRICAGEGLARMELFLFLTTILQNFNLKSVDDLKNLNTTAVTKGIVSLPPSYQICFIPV
- Assay Summary: in vitro
- Test Parameters: % Inhibition (set 2)
Outcome Measure: inhibition at 1.23 μM (%)

- Compound: "CC(C)(CCCCCCCCCCCCC(C)(C)C(=O)O)C(=O)O [M16αα]"
  Readout Units: "%"
  Assay Result: 0
- Compound: "O=c1c(O)c(-c2ccc(O)c(O)c2)oc2cc(O)cc(O)c12 [Quercetin, reference compound]"
  Readout Units: "%"
  Assay Result: 32
- Compound: "CC(C)(CCCCCCCCCCC(C)(C)CC(=O)O)CC(=O)O [M16ββ]"
  Readout Units: "%"
  Assay Result: 0

All figures here come from patent US20100240683A1.
